Tested on: DU-145
experiment-summary: Cytotoxicity against human DU145 cells after 48 hrs by MTT assay
Format: functional, cell-based
experimental-context: DU-145, 48 h
value-kind: IC50

Example entries begin here.
compound=COc1cc([C@@H]2c3cc4c(cc3[C@@H](c3nc5ccc(Cl)cc5o3)[C@H]3COC(=O)[C@H]23)OCO4)cc(OC)c1OC value_kind=IC50 obs_value="1.2 to 5.3 µM"
compound="COc1cc([C@@H]2c3cc4c(cc3[C@@H](O[C@@H]3O[C@@H]5CO[C@@H](C)O[C@H]5[C@H](O)[C@H]3O)[C@H]3COC(=O)[C@H]23)OCO4)cc(OC)c1O [ETOPOSIDE]" value_kind=IC50 obs_value="2.03 to 5.74 µM"

(Q) What value of measured IC50 is listed for COc1ccc2nc([C@@H]3c4cc5c(cc4[C@@H](c4cc(OC)c(OC)c(OC)c4)[C@H]4C(=O)OC[C@H]34)OCO5)oc2c1 ?
(A) 1.2 to 5.3 µM

(Q) What value of measured IC50 is listed for COc1cc([C@@H]2c3cc4c(cc3[C@@H](c3nc5ccccc5o3)[C@H]3COC(=O)[C@H]23)OCO4)cc(OC)c1OC ?
(A) 1.2 to 5.3 µM

(Q) What value of measured IC50 is listed for COc1cc([C@@H]2c3cc4c(cc3[C@@H](c3nc5ccc(OC)c(OC)c5o3)[C@H]3COC(=O)[C@H]23)OCO4)cc(OC)c1OC ?
(A) 1.2 to 5.3 µM
